Cited source: ChEMBL document CHEMBL1914459

# protocol: Oral bioavailability in Sprague-Dawley rat at 4 mg/kg
# Format: ADME, organism-based
# assaySetup: in vivo
measuredEndpoint: bioavailability
Kindly format the answer as number then unit.

CC(=O)Nc1cccc2c1c(Sc1ccc(Cl)cc1)c(C)n2CC(=O)O = 63%

Next up:
Recorded bioavailability for `Cc1c(Sc2ccc(Cl)cc2)c2c(NS(C)(=O)=O)cccc2n1CC(=O)O` , please?
42%

----------
# targetOrSystem: Prostaglandin D2 receptor 2 (Homo sapiens, UniProt Q9Y5Y4)
# Sequence (Q9Y5Y4 whole entry): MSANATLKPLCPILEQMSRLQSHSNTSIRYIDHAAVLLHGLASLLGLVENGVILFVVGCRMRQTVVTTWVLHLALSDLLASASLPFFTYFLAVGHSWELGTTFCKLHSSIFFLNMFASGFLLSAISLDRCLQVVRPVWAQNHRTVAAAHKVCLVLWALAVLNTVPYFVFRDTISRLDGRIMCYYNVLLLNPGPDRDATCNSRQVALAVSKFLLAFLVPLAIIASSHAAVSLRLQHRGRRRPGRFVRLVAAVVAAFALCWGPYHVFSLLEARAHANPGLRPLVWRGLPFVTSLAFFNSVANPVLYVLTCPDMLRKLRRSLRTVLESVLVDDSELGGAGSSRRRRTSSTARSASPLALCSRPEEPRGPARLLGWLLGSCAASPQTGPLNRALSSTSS
# protocol: Displacement of [3H]PGD2 from human CRTH2 receptor
measuredEndpoint: pIC50
// pIC50 is dimensionless: -log10 of concentration (M)

Some entries whose results are on file:
Cc1c(Sc2ccc(Cl)cc2)c2cc(F)ccc2n1CC(=O)O = 8.80
Cc1ccc2c(c1)c(S(=O)(=O)c1cccc(Cl)c1)c(C)n2CC(=O)O = 7.10
Cc1c(Sc2ccc(Cl)cc2)c2c(Cl)nccc2n1CC(=O)O = 7.49
Cc1c(Oc2ccc(Cl)cc2)c2cc(F)ccc2n1CC(=O)O = 8.30
Cc1c(Sc2ccc(Cl)cc2)c2ccc(S(C)(=O)=O)cc2n1CC(=O)O = 6.80
Cc1ccc2c(c1)c(S(=O)(=O)c1ccccc1Cl)c(C)n2CC(=O)O = 6.75
Cc1ccc2c(c1)c(Sc1cccc(Cl)c1)c(C)n2CC(=O)O = 8.52
Cc1c(Sc2ccc(Cl)cc2)c2c(S(C)(=O)=O)cccc2n1CC(=O)O = 7.96
CCS(=O)(=O)c1ccc(Oc2c(C)n(CC(=O)O)c3ccc(C(F)(F)F)cc23)cc1 = 8.46
Cc1c(Sc2ccc(Cl)cc2)c2cc(Cl)ccc2n1CC(=O)O = 7.89

Recorded pIC50 for `Cc1c(Sc2ccc(Cl)cc2)c2cc(S(C)(=O)=O)ccc2n1CC(=O)O` , please?
7.15

----------
# targetOrSystem: Aldehyde reductase AKR1A1 (Homo sapiens)
# protocol: Inhibition of human recombinant aldose reductase 1 after 15 mins by spectrophotometry analysis
measuredEndpoint: IC50 (nM)
The reply should contain only the number, in nM.

Cc1c(Sc2ccc(Cl)cc2)c2c(C#N)c(Cl)ccc2n1CC(=O)O = 2240

Recorded IC50 for `COc1cccc(S(=O)(=O)c2c(C)n(CC(=O)O)c3ccc(C)cc23)c1` , please?
115

----------
# protocol: Clearance in Sprague-Dawley rat at 1 mg/kg, iv
# Format: ADME, organism-based
# Design: dose 1 mg/kg, route intravenous
# assaySetup: in vivo
measuredEndpoint: clearance (mL/min/kg)
The reply should contain only the number, in mL/min/kg.

CC(=O)Nc1cccc2c1c(S(=O)(=O)c1ccc(Cl)cc1)c(C)n2CC(=O)O = 4
CC(=O)Nc1cccc2c1c(Sc1ccc(Cl)cc1)c(C)n2CC(=O)O = 4
Cc1c(Oc2ccc(Cl)cc2)c2c(NS(C)(=O)=O)cccc2n1CC(=O)O = 20

Recorded clearance for `Cc1c(Sc2ccc(Cl)cc2)c2c(NS(C)(=O)=O)cccc2n1CC(=O)O` , please?
11

----------
# targetOrSystem: Prostaglandin D2 receptor 2 (Homo sapiens, UniProt Q9Y5Y4)
# protocol: Displacement of [3H]PGD2 from human CRTH2 receptor
pIC50: −log10 of the molar value.
# thresholds on pIC50 define classes: low = under 7, intermediate = from 7 up to 8, high = 8 and over

Sample answers from the record:
Cc1c(Sc2ccc(Cl)cc2)c2c(NS(C)(=O)=O)cccc2n1CC(=O)O = high
Cc1c(F)ccc2c1c(Sc1ccc(Cl)cc1)c(C)n2CC(=O)O = high
Cc1c(Sc2ccc(Cl)cc2)c2c(-c3ccccc3)cccc2n1CC(=O)O = high
Cc1c(Sc2ccc(Cl)cc2)c2cc(Cl)ccc2n1C(C)C(=O)O (configuration not stated) = low
Cc1ccc2c(c1)c(Sc1ccccc1Cl)c(C)n2CC(=O)O = high

Kindly state the category for this compound: `Cc1ccc2c(c1)c(S(=O)(=O)c1ccc(Cl)cc1)c(C)n2CC(=O)O`
intermediate

Now this one: `Cc1ccc2c(n1)c(Sc1ccc(Cl)cc1)c(C)n2CC(=O)O`
intermediate

Now this one: `Cc1c(Oc2ccc(Cl)cc2)c2c(-c3ccccc3)cccc2n1CC(=O)O`
high

----------
Collected pIC50 values appear next to each entry.
# targetOrSystem: Prostaglandin D2 receptor 2 (Homo sapiens, UniProt Q9Y5Y4)
# Sequence (Q9Y5Y4 whole entry): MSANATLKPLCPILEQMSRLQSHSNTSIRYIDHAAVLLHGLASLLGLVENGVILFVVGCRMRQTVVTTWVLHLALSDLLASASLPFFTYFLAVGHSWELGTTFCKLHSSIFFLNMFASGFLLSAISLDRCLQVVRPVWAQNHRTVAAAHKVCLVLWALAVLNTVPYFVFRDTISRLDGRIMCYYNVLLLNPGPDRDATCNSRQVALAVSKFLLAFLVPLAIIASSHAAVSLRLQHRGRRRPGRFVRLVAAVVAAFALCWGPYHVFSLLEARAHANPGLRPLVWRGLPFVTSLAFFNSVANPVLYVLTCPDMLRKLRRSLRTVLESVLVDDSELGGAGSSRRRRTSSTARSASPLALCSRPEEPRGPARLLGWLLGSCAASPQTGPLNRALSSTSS
# protocol: Displacement of [3H]PGD2 from human CRTH2 receptor
// pIC50 is dimensionless: -log10 of concentration (M)

Some entries whose results are on file:
Cc1c(S(=O)(=O)c2ccc(Cl)cc2)c2cc(F)ccc2n1CC(=O)O = 8.15
Cc1c(Sc2ccc(Cl)cc2)c2cc(Cl)ccc2n1Cc1nnn[nH]1 = 5.83
CCS(=O)(=O)Nc1cccc2c1c(Oc1ccc(Cl)cc1)c(C)n2CC(=O)O = 7.44

Next up:
Recorded pIC50 for `Cc1c(Sc2ccc(Cl)cc2)c2c(-c3cnccn3)cccc2n1CC(=O)O` , please?
9.22

----------
# protocol: Inhibition of human recombinant aldose reductase 2 after 15 mins by spectrophotometry analysis
Collected pIC50 values appear next to each entry.
// pIC50 is dimensionless: -log10 of concentration (M)

Some entries whose results are on file:
Cc1c(Sc2ccc(Cl)cc2)c2ccc(Cl)cc2n1CC(=O)O = 5.70
COc1ccc(Sc2c(C)n(CC(=O)O)c3ccc(C)cc23)cc1 = 6.60

Recorded pIC50 for `CC(=O)Nc1cccc2c1c(S(=O)(=O)c1ccc(Cl)cc1)c(C)n2CC(=O)O` , please?
5.35

Now this one: `COc1cccc(S(=O)(=O)c2c(C)n(CC(=O)O)c3ccc(C)cc23)c1`
6.14

Now this one: `Cc1c(Sc2ccc(Cl)cc2)c2c(C#N)c(Cl)ccc2n1CC(=O)O`
5.32

Now this one: `Cc1ccc2c(c1)c(Sc1cccc(Cl)c1)c(C)n2CC(=O)O`
5.50

Now this one: `Cc1c(F)ccc2c1c(Sc1ccc(Cl)cc1)c(C)n2CC(=O)O`
5.45

----------
# targetOrSystem: Prostaglandin D2 receptor 2 (Homo sapiens)
# protocol: Displacement of [3H]PGD2 from human CRTH2 receptor
Collected IC50 values appear next to each entry.
The reply should contain only the number, in µM.

Some entries whose results are on file:
Cn1c(CC(=O)O)c(Sc2ccccc2)c2ccccc21 = 0.794
CC(=O)Nc1cccc2c1c(S(=O)(=O)c1ccc(Cl)cc1)c(C)n2CC(=O)O = 0.0071

Entry `Cc1ccc2c(c1)c(Sc1ccc(Cl)cc1)c(C)n2CC(=O)O` , system Prostaglandin D2 receptor 2 (Homo sapiens): what IC50 was measured?
0.015

Now this one: `Cc1ccc2c(c1)c(Sc1ccc(S(C)(=O)=O)cc1)c(C)n2CC(=O)O`
0.0014

Now this one: `Cc1c(Sc2ccc(Cl)cc2)c2c(Cl)cccc2n1CC(=O)O`
0.025

----------
# targetOrSystem: Prostaglandin D2 receptor 2 (Homo sapiens, UniProt Q9Y5Y4)
# protocol: Antagonist activity at human CRTh2 receptor expressed in HEK cells assessed as inhibition of PGD2-induced calcium flux
# Format: functional, cell-based, HEK293
Collected IC50 values appear next to each entry.

Recorded IC50 for `Cc1ccc2c(c1)c(Sc1ccc(Cl)cc1)c(C)n2CC(=O)O` , please?
87 nM

Now this one: `Cc1ccc2c(c1)c(Sc1ccccc1)c(C)n2CC(=O)O`
25 nM

Now this one: `Cc1c(Sc2ccc(Cl)cc2)c2cc(Cl)ccc2n1CC(=O)O`
35 nM
